# Tested on: Cricetinae gen. sp.
# Protocol details: In vivo cholesterol absorption inhibitory activity using 7-day cholesterol-fed hamster model (expressed as percent change in serum cholesterol at 50 mg/kg/day)
# Type: functional, Cricetulus griseus
Measure: Change
Kindly report the value followed by its unit.

>  <Molecule>
COc1ccc([C@H]2N(c3ccc(OC)cc3)C(=O)[C@]2(C)CCCc2ccccc2)cc1

>  <Change>
0%

$$$$

Please look at the items below and tell me Change for each one, in order.
1. COc1ccc([C@@H]2[C@@H](CCCCCCc3ccccc3)C(=O)N2c2ccc(OC)cc2)cc1
2. C=CCN1C(=O)[C@H](CCCc2ccccc2)[C@H]1c1ccc(OC)cc1
3. CC[C@]1(CCCc2ccccc2)C(=O)N(c2ccc(OC)cc2)[C@@H]1c1ccc(OC)cc1
4. COc1ccc([C@H]2N(c3ccccc3)C(=O)[C@@]2(F)CCCc2ccccc2)cc1
5. COc1ccc([C@@H]2[C@@H](CCCc3ccccc3)C(=O)N2c2ccc(Cl)cc2)cc1
6. COc1ccc(N2C(=O)[C@H](CCCc3ccccc3)[C@H]2c2ccc(OC(C)C)cc2)cc1
7. COc1ccc([C@@H]2[C@@H](CCCc3ccccc3)C(=O)N2c2ccccc2OC)cc1

1. -19%
2. 0%
3. 0%
4. -30%
5. -44%
6. -38%
7. -49%

Please look at the items below and tell me Change for each one, in order.
1. O=C1[C@H](CCCc2ccccc2)[C@@H](c2ccc(O)cc2)N1c1ccc(O)cc1
2. COc1ccc(N2C(=O)[C@H](CCCc3ccccc3)[C@H]2c2ccc(S(C)(=O)=O)cc2)cc1
3. CC[C@@]1(CCCc2ccccc2)C(=O)N(c2ccc(OC)cc2)[C@@H]1c1ccc(OC)cc1
4. CC[C@@]1(c2ccccc2)C(=O)N(c2ccc(OC)cc2)[C@@H]1c1ccc(OC)cc1
5. COc1ccc([C@@H]2[C@@H](CCCc3ccccc3)C(=O)N2C(=O)c2ccccc2)cc1
6. COc1ccc(N2C(=O)[C@H](CCCc3ccccc3)[C@H]2c2ccccc2)cc1

["-35%", "-26%", "0%", "0%", "0%", "-6%"]

Please look at the items below and tell me Change for each one, in order.
1. CCCCOc1ccc([C@@H]2[C@@H](CCCc3ccccc3)C(=O)N2c2ccc(OC)cc2)cc1
2. COc1ccc(N2C(=O)[C@H](CCCc3ccccc3)[C@H]2c2ccc3c(c2)OCO3)cc1
3. COc1ccc([C@@H]2[C@H](CCCc3ccccc3)C(=O)N2c2ccc(OC)cc2)cc1
4. COc1ccc([C@@H]2[C@@H](CCCc3ccccc3)C(=O)N2c2ccc([S+](C)[O-])cc2)cc1 (some centres undefined)
5. COc1ccc([C@@H]2[C@@H](CCCc3ccccc3)C(=S)N2c2ccc(OC)cc2)cc1

-34%
0%
-45%
-11%
0%
